system tested: full-length human Mineralocorticoid Receptor (MR) (Homo sapiens, UniProt P08235)
Construct: host or cells: PathHunter CHO-K1 cells
Sequence (P08235 whole entry): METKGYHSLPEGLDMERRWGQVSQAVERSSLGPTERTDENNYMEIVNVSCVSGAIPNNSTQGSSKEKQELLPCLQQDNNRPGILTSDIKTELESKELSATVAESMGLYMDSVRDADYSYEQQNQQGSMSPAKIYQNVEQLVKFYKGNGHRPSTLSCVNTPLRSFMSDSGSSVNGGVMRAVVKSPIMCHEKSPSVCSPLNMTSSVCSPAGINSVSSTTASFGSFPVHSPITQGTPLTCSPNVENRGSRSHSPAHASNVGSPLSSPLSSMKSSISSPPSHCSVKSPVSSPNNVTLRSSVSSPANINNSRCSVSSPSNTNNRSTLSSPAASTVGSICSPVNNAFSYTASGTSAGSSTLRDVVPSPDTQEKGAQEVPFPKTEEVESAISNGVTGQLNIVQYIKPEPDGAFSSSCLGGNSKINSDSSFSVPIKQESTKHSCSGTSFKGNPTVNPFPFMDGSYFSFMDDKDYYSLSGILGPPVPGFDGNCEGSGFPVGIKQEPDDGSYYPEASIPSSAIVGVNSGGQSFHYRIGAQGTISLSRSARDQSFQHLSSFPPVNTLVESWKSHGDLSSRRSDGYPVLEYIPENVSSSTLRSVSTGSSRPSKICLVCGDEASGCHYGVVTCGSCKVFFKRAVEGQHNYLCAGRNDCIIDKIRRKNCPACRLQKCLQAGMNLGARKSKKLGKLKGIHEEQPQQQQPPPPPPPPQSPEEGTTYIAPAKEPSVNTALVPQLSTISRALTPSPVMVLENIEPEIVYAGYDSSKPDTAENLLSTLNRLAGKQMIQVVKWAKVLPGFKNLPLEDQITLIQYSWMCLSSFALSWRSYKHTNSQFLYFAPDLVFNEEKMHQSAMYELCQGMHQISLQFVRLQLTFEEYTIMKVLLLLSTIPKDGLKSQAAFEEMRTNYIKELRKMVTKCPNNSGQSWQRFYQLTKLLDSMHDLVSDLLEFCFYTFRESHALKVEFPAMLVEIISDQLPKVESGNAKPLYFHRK
assay comment: human MR NH Pro assay (PathHunter Protein:Protein interaction assay), MR antagonist activity
Format: cell-based
condition summary: PathHunter CHO-K1 cells overexpressing human MR; aldosterone about 0.3 nM; 6 hours at 37° C.; luminescence; read-out: Primary Assay IP rating (IP = inflection point for a given dose-response titration curve)
Reported IC50 values are given for each entry in this list.

| molecule | IC50 |
| --- | --- |
| CCC(CCC#N)(c1ccc(Cl)cc1)n1ccc2c(NS(C)(=O)=O)cc(F)cc21 (single isomer, unassigned) [Compound 143] | < 100 nM |
| CC[C@@](c1ccc(Cl)cc1)(c1nnc(C(F)(F)F)[nH]1)n1ccc2c(NS(C)(=O)=O)cccc21 [Compound 66] | 100 to 500 nM |
| CCC(C(C)=O)(c1ccc(C(F)(F)F)cc1)n1ncc2c(NS(C)(=O)=O)cccc21 (single isomer, unassigned) [Compound 104] | 100 to 500 nM |
